Measured pIC50 on UniProtKB P00735 follows.
By convention, pIC50 is the negative base-10 log of a molar concentration.

Before answering, review these 7 worked examples.
CCCCOc1ccc(OC(=O)C2CCCc3ccc(NC(=N)N)cc32)cc1 (centres unmarked) :: 4.62
CN(C)C(=O)COC(=O)c1ccc(OC(=O)C2CCCc3ccc(N)cc32)cc1 (centres unmarked) :: 4.40
N=C(N)Nc1ccc2c(c1)C(C(=O)Oc1ccc(OC(=O)C3CCCc4ccc(NC(=N)N)cc43)cc1)CCC2 (centres unmarked) :: 4.27
Cc1ccc(OC(=O)C2CCCc3ccc(NC(=N)N)cc32)cc1 (centres unmarked) :: 3.05
COC(=O)c1ccc(OC(=O)C2CCCc3c(NC(=N)N)cccc32)cc1 (centres unmarked) :: 4.10
CN(C)C(=O)COC(=O)c1ccc(OC(=O)C2CCCc3c(N)cccc32)cc1 (centres unmarked) :: 3.92
CN(C)C(=O)COC(=O)CCc1ccc(OC(=O)C2CCCc3ccc(NC(=N)N)cc32)cc1 (centres unmarked) :: 4.00

[in] Let me know recorded pIC50 for Cl.N=C(N)Nc1ccc2c(c1)C(C(=O)Oc1ccccc1)CCC2 (centres unmarked) [Compound 134, hydrochloride] , thanks.
[out] 4.57

----------
target: Human Plasmin (Homo sapiens); assay: Inhibitory effect on ester-hydrolyzing activity of human plasmin (TAMe substrate); type: biochemical; settings: at 10^-3 M; in vitro, TAMe; read-out: Plasmin percent inhibition
Sequence (P00747 581-810 limits assumed): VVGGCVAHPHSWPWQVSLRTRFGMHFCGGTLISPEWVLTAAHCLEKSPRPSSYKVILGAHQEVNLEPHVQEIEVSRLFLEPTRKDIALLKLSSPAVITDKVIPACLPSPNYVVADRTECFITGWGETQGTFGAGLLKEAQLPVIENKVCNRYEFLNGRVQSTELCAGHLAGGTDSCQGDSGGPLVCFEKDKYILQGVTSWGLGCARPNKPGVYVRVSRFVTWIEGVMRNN
Sequence (P00747 97-580 partner limits assumed): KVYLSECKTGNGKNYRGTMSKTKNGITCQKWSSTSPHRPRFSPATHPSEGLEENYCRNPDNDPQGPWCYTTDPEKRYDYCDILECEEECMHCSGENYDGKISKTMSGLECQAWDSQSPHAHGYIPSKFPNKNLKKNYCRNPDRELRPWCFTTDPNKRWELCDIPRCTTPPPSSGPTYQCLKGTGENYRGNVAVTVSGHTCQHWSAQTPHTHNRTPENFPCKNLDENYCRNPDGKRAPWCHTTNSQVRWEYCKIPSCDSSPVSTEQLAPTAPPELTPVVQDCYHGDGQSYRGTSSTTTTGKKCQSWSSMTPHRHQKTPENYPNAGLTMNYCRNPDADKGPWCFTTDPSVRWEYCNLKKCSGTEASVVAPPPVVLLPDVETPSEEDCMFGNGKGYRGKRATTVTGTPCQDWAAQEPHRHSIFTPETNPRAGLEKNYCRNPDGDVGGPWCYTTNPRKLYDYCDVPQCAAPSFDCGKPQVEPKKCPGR
Kindly return 1.0 if reported inhibition at 1000 µM is no lower than 30%; return 0.0 if it is lower.

[in] Decide: inhibition at 1000 µM of N=C(N)Nc1cccc2c1CCCC2C(=O)Oc1cccc2ccccc12 (centres unmarked) >= 30%?
[out] 0.0

[in] Check if inhibition at 1000 µM >= 30% (inclusive). Item: Nc1ccc2c(c1)C(C(=O)Oc1ccc(OC(=O)C3CCCc4ccc(N)cc43)cc1)CCC2 (centres unmarked)
[out] 0.0

----------
Listed next: entries and their corresponding inhibition at 1000 µM.
target: Trypsin (Bos taurus); experiment: Inhibitory effect on ester-hydrolyzing activity of trypsin (TAMe substrate); format: biochemical; conditions: read-out: Trypsin percent inhibition
Sequence (P00760 24-246): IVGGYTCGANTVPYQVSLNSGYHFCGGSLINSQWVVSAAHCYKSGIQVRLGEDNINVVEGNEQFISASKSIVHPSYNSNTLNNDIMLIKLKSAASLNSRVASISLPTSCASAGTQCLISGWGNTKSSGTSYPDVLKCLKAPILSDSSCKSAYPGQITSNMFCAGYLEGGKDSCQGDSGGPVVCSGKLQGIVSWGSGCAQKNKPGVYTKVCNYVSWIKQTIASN
Write the value in % as a bare number.

In the examples that follow, each entry is paired with its recorded inhibition at 1000 µM.
CCOC(=O)COC(=O)CCc1ccc(OC(=O)C2CCCc3ccc(NC(=N)N)cc32)cc1 (centres unmarked) :: 48.8
COc1cccc(OC(=O)C2CCCc3ccc(NC(=N)N)cc32)c1 (centres unmarked) :: 46
N=C(N)Nc1ccc2c(c1)C(C(=O)Oc1ccc(OC(=O)C3CCCc4ccc(NC(=N)N)cc43)cc1)CCC2 (centres unmarked) :: 40.5
CN(C)C(=O)COC(=O)CCc1ccc(OC(=O)C2CCCc3ccc(NC(=N)N)cc32)cc1 (centres unmarked) :: 29.1

[in] Give a short answer stating reported inhibition at 1000 µM for CCCCOc1ccc(OC(=O)C2CCCc3ccc(NC(=N)N)cc32)cc1 (centres unmarked) .
[out] 36.9

[in] # return recorded inhibition at 1000 µM for input Cl.N=C(N)Nc1ccc2c(c1)C(C(=O)Oc1ccccc1)CCC2 (centres unmarked) [Compound 134, hydrochloride]
[out] 40.6

[in] Assign inhibition at 1000 µM to the following record: Cc1ccc(OC(=O)C2CCCc3ccc(NC(=N)N)cc32)cc1 (centres unmarked)
[out] 17.5

----------
molecular target: Human Plasma Kallikrein (Homo sapiens, UniProt P03952); assay: Inhibitory effect on ester-hydrolyzing activity of human plasma kallikrein (TAMe substrate); format: biochemical; conditions: at 10^-3 M; in vitro, TAMe; read-out: Kallikrein percent inhibition
Sequence (P03952 391-638 limits assumed): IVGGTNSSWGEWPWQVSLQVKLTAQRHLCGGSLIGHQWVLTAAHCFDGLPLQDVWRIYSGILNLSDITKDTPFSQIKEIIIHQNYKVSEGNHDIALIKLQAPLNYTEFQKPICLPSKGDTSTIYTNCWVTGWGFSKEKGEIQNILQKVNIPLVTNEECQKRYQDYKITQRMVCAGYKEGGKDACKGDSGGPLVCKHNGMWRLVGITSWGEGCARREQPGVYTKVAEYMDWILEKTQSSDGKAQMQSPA
Sequence (P03952 20-390 partner limits assumed): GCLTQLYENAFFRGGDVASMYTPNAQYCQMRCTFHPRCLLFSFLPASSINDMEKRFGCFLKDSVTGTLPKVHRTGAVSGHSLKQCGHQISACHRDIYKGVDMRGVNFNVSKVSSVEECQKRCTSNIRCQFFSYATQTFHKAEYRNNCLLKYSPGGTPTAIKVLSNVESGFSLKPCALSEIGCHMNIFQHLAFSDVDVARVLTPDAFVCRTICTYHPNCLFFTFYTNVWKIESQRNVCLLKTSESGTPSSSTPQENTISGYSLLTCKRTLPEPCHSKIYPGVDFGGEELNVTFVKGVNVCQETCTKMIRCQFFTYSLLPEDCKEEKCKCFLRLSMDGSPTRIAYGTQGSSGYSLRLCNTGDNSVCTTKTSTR
PROPERTY_MEASURED: inhibition at 1000 µM

Some compounds with recorded inhibition at 1000 µM:
Nc1ccc2c(c1)C(C(=O)Oc1ccc(OC(=O)C3CCCc4ccc(N)cc43)cc1)CCC2 (stereo not shown) :: < 3.2%
N=C(N)Nc1cccc2c1CCCC2C(=O)Oc1ccc(C(=O)OCC(N)=O)cc1 (stereo not shown) :: 46.9%
CN(C)C(=O)COC(=O)CCc1ccc(OC(=O)C2CCCc3ccc(N)cc32)cc1 (stereo not shown) :: 13.3%

The record that follows has no inhibition at 1000 µM shown yet.
[in] Query inhibition at 1000 µM for CCOC(=O)c1ccc(OC(=O)C2CCCc3ccc(N)cc32)cc1 (stereo not shown)
[out] 25%

----------
molecular target: Trypsin (Bos taurus); assay: Inhibitory effect on ester-hydrolyzing activity of trypsin (TAMe substrate); format: biochemical; details: in vitro, TAMe, pH 8.6, 37° C.; Table 4 bracketed value; read-out: Trypsin ID50
In this section we review reported pIC50 values for a set of compounds.
The scale used: pIC50 is minus the common logarithm of the concentration in molar units.

Would you please look over these solved cases?
N=C(N)Nc1cccc2c1CCCC2C(=O)Oc1ccc(C(=O)OCc2ccccc2)cc1 (centres unmarked) [Compound 124] :: 4.12
CN(C)C(=O)COC(=O)CCc1ccc(OC(=O)C2CCCc3ccc(N)cc32)cc1 (centres unmarked) [Compound 103] :: 4.11
CN(C)C(=O)COC(=O)c1ccc(OC(=O)C2CCCc3c(N)cccc32)cc1 (centres unmarked) [Compound 72] :: 4.60
CCOC(=O)c1ccc(OC(=O)C2CCCc3ccc(N)cc32)cc1 (centres unmarked) [Compound 94] :: 4.34
N=C(N)Nc1cccc2c1CCCC2C(=O)Oc1cccc2c1CCCC2 (centres unmarked) [Compound 164] :: 3.00
NC(=O)COC(=O)c1ccc(OC(=O)C2CCCc3ccc(N)cc32)cc1 (centres unmarked) [Compound 99] :: 4.06
CCCOC(=O)c1ccc(OC(=O)C2CCCc3ccc(N)cc32)cc1 (centres unmarked) [Compound 96] :: 4.17
NC(=O)COC(=O)c1ccc(OC(=O)C2CCCc3c(N)cccc32)cc1 (centres unmarked) [Compound 71] :: 4.51
COC(=O)c1cccc(OC(=O)C2CCCc3c(N)cccc32)c1 (centres unmarked) [Compound 64] :: 4.21
CCCOC(=O)c1ccc(OC(=O)C2CCCc3c(N)cccc32)cc1 (centres unmarked) [Compound 68] :: 4.39

[in] For the compound Nc1cccc2c1CCCC2C(=O)Oc1ccc(OC(=O)C2CCCc3c(N)cccc32)cc1 (centres unmarked) [Compound 78] , give its reported pIC50.
[out] 4.44

[in] Please supply the value of reported pIC50 for the item N=C(N)Nc1ccc2c(c1)C(C(=O)Oc1cccc3ccccc13)CCC2 (centres unmarked) [Compound 159]
[out] 3.49

[in] Identify measured pIC50 corresponding to COC(=O)c1ccc(OC(=O)C2CCCc3ccc(N)cc32)cc1 (centres unmarked) [Compound 91]
[out] 4.77

----------
# IC50 per record follows
molecular target: Bovine Thrombin (Bos taurus, UniProt P00735)
Report the figure in µM without appending any unit label.

// known answers, use as guide
CCOC(=O)COC(=O)CCc1ccc(OC(=O)C2CCCc3ccc(NC(=N)N)cc32)cc1 (stereo not shown) :: 120
N#Cc1ccc(OC(=O)C2CCCc3c(NC(=N)N)cccc32)cc1 (stereo not shown) :: 1000

[in] Provide one value: measured IC50 of COc1cccc(OC(=O)C2CCCc3ccc(NC(=N)N)cc32)c1 (stereo not shown)
[out] 260

[in] State, in one line, measured IC50 of COC(=O)c1ccc(OC(=O)C2CCCc3ccc(NC(=N)N)cc32)cc1 (stereo not shown)
[out] 19

[in] Identify IC50 associated with the compound COc1ccc(OC(=O)C2CCCc3ccc(NC(=N)N)cc32)cc1.Cl (stereo not shown) [Compound 138, hydrochloride]
[out] 32

[in] Read the entry NC(=O)COC(=O)c1ccc(OC(=O)C2CCCc3ccc(N)cc32)cc1 (stereo not shown) and write its reported IC50.
[out] 66

[in] Give IC50 for the following compound: COC(=O)c1ccc(OC(=O)C2CCCc3c(N)cccc32)cc1 (stereo not shown)
[out] 1000

[in] Report IC50, nothing else, for this compound: CCOC(=O)c1ccc(OC(=O)C2CCCc3ccc(NC(=N)N)cc32)cc1 (stereo not shown)
[out] 6

[in] Supply IC50 value. Item: NC(=O)COC(=O)c1ccc(OC(=O)C2CCCc3c(N)cccc32)cc1 (stereo not shown)
[out] 62

[in] Give reported IC50 value for N=C(N)Nc1cccc2c1CCCC2C(=O)Oc1ccc(C(=O)OCC(N)=O)cc1 (stereo not shown)
[out] 290

[in] Provide IC50 value for the following compound: CN(C)C(=O)COC(=O)Cc1ccc(OC(=O)C2CCCc3ccc(N)cc32)cc1 (stereo not shown)
[out] 300

[in] Look up and state reported IC50 for N#Cc1ccc(OC(=O)C2CCCc3ccc(NC(=N)N)cc32)cc1 (stereo not shown)
[out] 17

[in] Consider the compound COC(=O)c1ccc(OC(=O)C2CCCc3ccc(N)cc32)cc1 (stereo not shown) and give its recorded IC50.
[out] 210

[in] Please give measured IC50 of the following entry: CN(C)C(=O)COC(=O)CCc1ccc(OC(=O)C2CCCc3ccc(N)cc32)cc1 (stereo not shown)
[out] 1000

[in] Find the measured IC50 of COC(=O)c1cccc(OC(=O)C2CCCc3ccc(N)cc32)c1 (stereo not shown) and report it.
[out] 1000

[in] Write down IC50 measured for item CCCCOc1ccc(OC(=O)C2CCCc3c(NC(=N)N)cccc32)cc1 (stereo not shown)
[out] 1000
